Reference for the values: ChEMBL document CHEMBL2331139

Test: Terminal half life in monkey
Format: ADME, organism-based, Macaca mulatta
Conditions: rhesus monkey, in vivo; read-out: beta t1/2 (converted)
recorded-metric: half-life (h)
State the answer as a number, implicitly in h.

QUERY: Sample CCc1cc(/C(C)=N/OCc2ccc(C3CCCCC3)c(C(F)(F)F)c2)ccc1CN1CC(C(=O)O)C1 — what was its half-life?
RESULT: 19

###

Test: Clearance in monkey
Format: ADME, organism-based, Macaca mulatta
Settings: rhesus monkey, in vivo
recorded-metric: clearance
Answer format: value, then unit.

QUERY: Sample CCc1cc(/C(C)=N/OCc2ccc(C3CCCCC3)c(C(F)(F)F)c2)ccc1CN1CC(C(=O)O)C1 [SIPONIMOD] — what was its clearance?
RESULT: 1.63 mL/min/kg

###

Test: Volume of distribution at steady state in rat
Format: ADME, organism-based
Details: in vivo, read-out: Vdss
recorded-metric: Vd (L/kg)
State the answer as a number, implicitly in L/kg.

QUERY: Sample CCc1cc(/C(C)=N/OCc2ccc(C3CCCCC3)c(C(F)(F)F)c2)ccc1CN1CC(C(=O)O)C1 — what was its Vd?
RESULT: 2.15

###

Experiment: Terminal half life in rat
Format: ADME, organism-based
Settings: in vivo, read-out: beta t1/2 (converted)
recorded-metric: half-life

QUERY: Sample CCc1cc(/C(C)=N/OCc2ccc(C3CCCCC3)c(C(F)(F)F)c2)ccc1CN1CC(C(=O)O)C1 [SIPONIMOD] — what was its half-life?
RESULT: 6 h

###

Target: Sphingosine 1-phosphate receptor 3 (Homo sapiens)
Sequence (Q99500 whole entry): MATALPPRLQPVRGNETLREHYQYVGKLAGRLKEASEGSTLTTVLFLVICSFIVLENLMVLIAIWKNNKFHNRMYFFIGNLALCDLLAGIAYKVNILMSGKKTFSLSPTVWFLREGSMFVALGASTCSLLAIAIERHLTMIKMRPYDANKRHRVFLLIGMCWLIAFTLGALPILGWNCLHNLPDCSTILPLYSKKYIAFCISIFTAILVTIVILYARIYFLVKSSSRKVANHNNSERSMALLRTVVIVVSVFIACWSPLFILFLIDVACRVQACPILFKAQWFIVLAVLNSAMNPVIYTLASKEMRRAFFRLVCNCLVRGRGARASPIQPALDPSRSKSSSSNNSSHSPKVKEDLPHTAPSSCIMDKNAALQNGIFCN
Assay: Agonist activity at human S1P3 receptor transfected in CHO cells incubated for 10 to 15 mins prior to GTPgamma35S addition measured after 120 mins by GTPgamma35S binding assay
The following compounds are listed with their measured pEC50 values.
Value format note: pEC50 is -log10 of concentration (mol/L); just state the number.

Check out these entries, answers already filled in.
C/C(=N\OCc1ccc(-c2ccco2)c(C(F)(F)F)c1)c1ccc(CNCCC(=O)O)cc1 5.52
CCc1cc(/C(C)=N/OCc2ccc(C3CCCCC3)c(C(F)(F)F)c2)ccc1CNCCC(=O)O 5.14
C/C(=N\OCc1ccc(C2CCCCC2)c(C(F)(F)F)c1)c1ccc(CN2CC(C(=O)O)C2)c(C)c1 5.49
C/C(=N\OCc1ccc(C2CCCCC2)c(C(F)(F)F)c1)c1ccc(CNCCC(=O)O)cc1 5.82
C/C(=N\OCc1ccc(C2CCCCC2)c(C(F)(F)F)c1)c1ccc(CNCCC(=O)O)c(Cl)c1 5.72
C/C(=N\OCc1ccc(C2CCCCC2)c(C(F)(F)F)c1)c1ccc(CNCCC(=O)O)c(C)c1 5.23
C/C(=N\OCc1ccc(C2CCCCC2)c(C(F)(F)F)c1)c1ccc(CNCCC(=O)O)c(C2CC2)c1 5.89

QUERY: Sample C/C(=N\OCc1ccc(C2CCCCC2)c(C(F)(F)F)c1)c1ccc(CNCCC(=O)O)o1 — what was its pEC50?
RESULT: 5.60

###

The following compounds are listed with their measured Emax values.
Molecular target: UniProtKB P21453
Sequence (P21453 whole entry): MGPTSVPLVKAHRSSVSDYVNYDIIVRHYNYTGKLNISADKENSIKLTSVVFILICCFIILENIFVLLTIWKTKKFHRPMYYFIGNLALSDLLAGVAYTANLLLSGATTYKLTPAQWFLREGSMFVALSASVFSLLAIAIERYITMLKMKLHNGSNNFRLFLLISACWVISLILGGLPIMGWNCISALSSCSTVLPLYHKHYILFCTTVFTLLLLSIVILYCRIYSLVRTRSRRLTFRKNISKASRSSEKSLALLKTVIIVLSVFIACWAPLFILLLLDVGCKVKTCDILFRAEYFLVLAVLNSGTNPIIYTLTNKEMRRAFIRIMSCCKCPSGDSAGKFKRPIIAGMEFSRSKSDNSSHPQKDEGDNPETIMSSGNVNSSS
Experiment: Agonist activity at human S1P1 receptor transfected in CHO cells at 10 uM incubated for 10 to 15 mins prior to GTPgamma35S addition measured after 120 mins by GTPgamma35S binding assay relative to S1P
Type: functional, cell-based

Check out these entries, answers already filled in.
C/C(=N\OCc1ccc(C2CCCCC2)c(C(F)(F)F)c1)c1ccc(CN2CC(C(=O)O)C2)c(C)c1 80%
C/C(=N\OCc1ccc(C2CCCCC2)c(C(F)(F)F)c1)c1ccc(CNCCC(=O)O)c(F)c1 105%
C/C(=N\OCc1ccc(C2CCCCC2)c(C(F)(F)F)c1)c1ccc(CNCCC(=O)O)cn1 92%
C/C(=N\OCc1ccc(C2CCCCC2)c(C(F)(F)F)c1)c1ccc(CNCCC(=O)O)s1 104%
C/C(=N\OCc1ccc(C2CCCCC2)c(C(F)(F)F)c1)c1ccc(CNCCC(=O)O)nc1 86%
CCc1cc(/C(C)=N/OCc2ccc(C3CCCCC3)c(C(F)(F)F)c2)ccc1CNCCC(=O)O 92%

Next, consider the following compound.
QUERY: Sample C/C(=N\OCc1ccc(C2CCCCC2)c(C(F)(F)F)c1)c1ccc(CNCCC(=O)O)c(C)c1 — what was its Emax?
RESULT: 94%
